Target: G protein-coupled receptor 119 (GPR-119) (Mesocricetus auratus, UniProt A0A1U8CD06)
Construct: hamster-derived β-cells containing G protein-coupled receptor 119 (GPR-119), HIT-T15 cells; host or cells: HIT-T15 (hamster pancreatic β-cells)
Sequence (A0A1U8CD06 1-334): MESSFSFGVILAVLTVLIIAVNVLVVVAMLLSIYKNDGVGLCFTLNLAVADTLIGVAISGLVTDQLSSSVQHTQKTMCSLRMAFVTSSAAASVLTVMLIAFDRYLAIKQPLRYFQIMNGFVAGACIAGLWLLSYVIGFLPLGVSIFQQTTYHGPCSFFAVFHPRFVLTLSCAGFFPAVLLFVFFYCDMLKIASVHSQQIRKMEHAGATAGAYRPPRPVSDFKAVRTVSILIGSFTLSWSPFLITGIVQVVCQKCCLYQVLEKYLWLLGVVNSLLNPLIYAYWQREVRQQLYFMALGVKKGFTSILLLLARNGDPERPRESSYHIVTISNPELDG
Test: Evaluation of cAMP activity in HIT-T15 cells (HTRF cAMP dynamic kit)
Assay type: cell-based, hamster
Conditions: cAMP activation, 1 h at 37° C., six concentrations, read-out: EC50
Structures can show the parent of a compound that is named as a salt.
Decide using EC50 alone. Strictly below 0.02 µM: 1 (yes). Equal to or above 0.02 µM: 0 (no).

[[record]]
compound = "CCc1cnc(N2CCC(COc3ccc(C4=CCC(C(=O)N5CCC6(C=Cc7ccccc76)CC5)CC4)cc3)CC2)nc1 (stereo not drawn)"
category_label = "1 (yes)"

[[record]]
compound = "CC(C)(C)OC(=O)N1CCC(COc2ccc(C3=CCC(C(=O)NC(CO)CO)CC3)cn2)CC1 (stereo not drawn)"
category_label = "0 (no)"

[[record]]
compound = "CCc1cnc(N2CCC(COc3ccc(C4=CCC(C(=O)N5CCN(CC6CC6)CC5)CC4)cc3)CC2)nc1 (stereo not drawn)"
category_label = "0 (no)"

[[record]]
compound = "CC(C)(C)OC(=O)N1CCC(COc2ccc(C3=CCC(C(=O)NC4CC4)CC3)c(F)c2)CC1 (stereo not drawn)"
category_label = "0 (no)"

[[record]]
compound = "CC(C)c1noc(N2CCC(COc3ccc(C4=CCC(C(=O)NCC(=O)N5CCC[C@H]5C(N)=O)CC4)cc3F)CC2)n1 (stereo partly drawn)"
category_label = "0 (no)"

[[record]]
compound = "CC(C)(C)OC(=O)N1CCC(COc2ccc(C3=CCC(C(=O)N4CCSCC4)CC3)cc2F)CC1 (stereo not drawn)"
category_label = "1 (yes)"

[[record]]
compound = "CCc1cnc(N2CCC(COc3ccc(C4=CCC(C(=O)N5CCCC5)CC4)cc3)CC2)nc1 (stereo not drawn) [Example 166, hydrochloride]"
category_label = "0 (no)"

[[record]]
compound = "CC(C)(C)OC(=O)N1CCC(COc2ccc(C3=CCC(C(=O)N4CC[C@H](O)C4)CC3)cn2)CC1 (stereo partly drawn)"
category_label = "0 (no)"

[[record]]
compound = "CCN(CCO)C(=O)C1CC=C(c2ccc(OCC3CCN(c4nc(C(C)C)no4)CC3)cc2)CC1 (stereo not drawn)"
category_label = "0 (no)"

[[record]]
compound = "CCc1cnc(N2CCC(COc3ccc(C4=CCC(C(=O)NC[C@H](O)CO)CC4)cc3)CC2)nc1 (stereo partly drawn)"
category_label = "0 (no)"

[[record]]
compound = "CCc1cnc(N2CCC(COc3ccc(C4=CCC(C(=O)N5CCCCC5)CC4)cc3)CC2)nc1 (stereo not drawn) [Example 163]"
category_label = "1 (yes)"

[[record]]
compound = "CC(C)(C)OC(=O)N1CCC(COc2ccc(C3=CCC(C(=O)N4CCC(=O)C4)CC3)cc2)CC1 (stereo not drawn)"
category_label = "0 (no)"

[[record]]
compound = "CC(C)(C)OC(=O)N1CCC(COc2ccc(C3=CCC(C(=O)NCCF)CC3)c(F)c2)CC1 (stereo not drawn)"
category_label = "0 (no)"

[[record]]
compound = "CC(C)c1noc(N2CCC(COc3ccc(C4=CCC(C(=O)N5CC[C@H](CO)C5)CC4)cc3)CC2)n1 (stereo partly drawn)"
category_label = "1 (yes)"

